Catalogue of Ki values
System: human GABAA α1β2γ1 receptor (Homo sapiens (Human), UniProt P14867+Q8N1C3)
Assay Protocol: Radioligand binding assay for γ1-containing GABAA subtypes, [3H]RO7239181 competition (α1β2γ1)
Quick reminder: number only, in nM, skip the unit.

// query Entry `C[C@@H]1N=C(c2c(F)cccc2F)c2c(ccc(C(F)(F)F)c2Cl)-n2nc(C(=O)NCCO)nc21` : reported Ki = ?
// result 65.1

// query Same thing, different compound: `C[C@@H]1N=C(c2ncccc2F)c2c(ccc(C(F)(F)F)c2Cl)-n2nc(C(=O)N3CCC3)nc21`
// result 224

// query Same thing, different compound: `Cc1nnc(-c2nc3n(n2)-c2ccc(C(F)(F)F)c(Cl)c2C(c2ncccc2F)=N[C@H]3C)o1`
// result 179

// query Same thing, different compound: `C[C@@H]1N=C(c2c(F)cccc2F)c2c(ccc(C(F)(F)F)c2Cl)-n2nc(C(=O)NN(C)C)nc21`
// result 99.2
